# experiment: Tmax in BALB/c mouse at 90 mg/kg, po
# Assay type: ADME, organism-based
# Parameters: dose 90 mg/kg, route oral
# condition.label: in vivo
recorded.endpoint: Tmax (h)
Record the value in h, omitting the unit from your answer.

Using the record for Fc1cccc(Cn2ncc3cc(Nc4ncnn5ccc(CN6CCCNCC6)c45)ccc32)c1 , report its Tmax.
3

====

# target.of.assay: Epidermal growth factor receptor (Homo sapiens)
# Sequence (P00533 whole entry): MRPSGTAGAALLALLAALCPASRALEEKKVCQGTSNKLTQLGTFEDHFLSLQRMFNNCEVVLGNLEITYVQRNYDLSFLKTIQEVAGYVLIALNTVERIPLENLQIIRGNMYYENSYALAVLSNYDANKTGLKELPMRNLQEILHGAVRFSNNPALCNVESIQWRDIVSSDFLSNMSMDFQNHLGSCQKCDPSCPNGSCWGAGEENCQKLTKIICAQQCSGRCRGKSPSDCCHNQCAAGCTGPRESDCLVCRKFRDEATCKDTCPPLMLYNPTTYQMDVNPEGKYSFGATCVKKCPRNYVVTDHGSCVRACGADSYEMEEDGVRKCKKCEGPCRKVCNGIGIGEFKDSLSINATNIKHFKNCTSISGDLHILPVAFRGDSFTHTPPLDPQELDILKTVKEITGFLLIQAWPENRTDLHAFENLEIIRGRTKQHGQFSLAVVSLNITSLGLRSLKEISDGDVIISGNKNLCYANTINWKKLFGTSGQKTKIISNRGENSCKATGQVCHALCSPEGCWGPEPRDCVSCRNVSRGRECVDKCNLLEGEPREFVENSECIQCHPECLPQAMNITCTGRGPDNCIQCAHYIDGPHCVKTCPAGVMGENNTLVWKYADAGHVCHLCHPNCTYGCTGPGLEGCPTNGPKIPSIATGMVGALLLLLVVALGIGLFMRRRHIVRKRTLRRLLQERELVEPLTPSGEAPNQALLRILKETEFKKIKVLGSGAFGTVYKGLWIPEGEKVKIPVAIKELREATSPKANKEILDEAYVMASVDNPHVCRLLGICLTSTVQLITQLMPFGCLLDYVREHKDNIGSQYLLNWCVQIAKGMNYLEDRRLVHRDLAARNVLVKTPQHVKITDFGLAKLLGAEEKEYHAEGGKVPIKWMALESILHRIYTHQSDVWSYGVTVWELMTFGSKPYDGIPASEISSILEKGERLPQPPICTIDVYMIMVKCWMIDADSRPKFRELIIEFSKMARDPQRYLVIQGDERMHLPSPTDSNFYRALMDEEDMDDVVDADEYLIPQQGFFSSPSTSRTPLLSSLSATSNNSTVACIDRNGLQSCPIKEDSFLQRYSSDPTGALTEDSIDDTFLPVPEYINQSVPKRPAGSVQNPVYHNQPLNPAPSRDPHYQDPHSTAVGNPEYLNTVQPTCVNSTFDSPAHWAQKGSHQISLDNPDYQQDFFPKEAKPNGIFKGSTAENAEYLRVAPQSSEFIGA
pIC50: −log10 of the molar value.
Given measured pIC50, output satisfied if it is greater than or equal to 7 and not satisfied if not.

Could you verify whether the entry O[C@@H]1CNCCN(Cc2ccn3ncnc(Nc4ccc5c(cnn5Cc5cccc(F)c5)c4)c23)C1 shows pIC50 of no less than 7?
not satisfied

Could you verify whether the entry CS(=O)(=O)N1CCCN(Cc2ccn3ncnc(Nc4ccc5c(cnn5Cc5cccc(F)c5)c4)c23)CC1 shows pIC50 of no less than 7?
not satisfied

Could you verify whether the entry Fc1cccc(Cn2ncc3cc(Nc4ncnn5ccc(CN6CCCNCC6)c45)ccc32)c1 shows pIC50 of no less than 7?
satisfied

Could you verify whether the entry Fc1cccc(Cn2ncc3cc(Nc4ncnn5ccc(CN6CCCC6)c45)ccc32)c1 shows pIC50 of no less than 7?
not satisfied

Could you verify whether the entry CC(=O)N1CCN(Cc2ccn3ncnc(Nc4ccc5c(cnn5Cc5cccc(F)c5)c4)c23)CC1 shows pIC50 of no less than 7?
not satisfied

Could you verify whether the entry O=C1CN(Cc2ccn3ncnc(Nc4ccc5c(cnn5Cc5cccc(F)c5)c4)c23)CCN1 shows pIC50 of no less than 7?
not satisfied
